Test: Photodynamic cytotoxicity in human PC-3 cells assessed as reduction in cell viability under 405 nm irradiation exposure measured after 2 hrs by MTT assay
Format: toxicity, cell-based
readout-label: IC50 at 2 h (µM)
Value expressed in µM; do not type the unit.

Just so you know, measured IC50 at 2 h for O=[N+]([O-])c1ccc(-c2ccc(S[C@H]3O[C@H](CO)[C@@H](O)[C@H](O)[C@@H]3O)cc2)cc1 came out at 150

Lookup result for O=[N+]([O-])c1ccc(-c2ccc(S[C@@H]3O[C@H](CO)[C@H](O)[C@H](O)[C@H]3O)cc2)cc1 ; measured IC50 at 2 h: 120

So for O=[N+]([O-])c1ccc(-c2ccc(S[C@@H]3O[C@H](CO)[C@@H](O)[C@H](O)[C@H]3O)cc2)cc1 , the logged IC50 at 2 h turned out to be 250
